Tested on: S. aureus ATCC 29213
Assay: In vitro susceptibility, broth microdilution MIC
Type: cell-based, Staphylococcus aureus
Conditions: Staphylococcus aureus, ATCC29213, Tables 1-6 and text; minimum concentration to give >98% inhibition of growth; read-out: MIC
Reported MIC is given for each of the following molecules.
observable: MIC

| molecule | targetEntity | observed |
| --- | --- | --- |
| c1ccc2[nH]c(-c3ccc(-c4cc5ccccc5[nH]4)cc3)cc2c1 [Compound 46] | S. aureus ATCC 29213 | > 16 mg/L |
| O=C(Nc1nc2ccc(Br)cc2s1)c1cccc(Cl)c1O [Compound 83] | S. aureus ATCC 29213 | 4 mg/L |
| Brc1ccc2cc(C#Cc3cc4ccc(Br)cc4[nH]3)[nH]c2c1 [Compound 25b, 1,2-Bis(6-bromo-1H-indol-2-yl)ethyne] | S. aureus ATCC 29213 | > 64 mg/L |
| Brc1ccc2[nH]c(-c3cc4cc(Br)ccc4[nH]3)cc2c1 [Compound 10i, 5,5′-Bibromo-1H,1′H-2,2′-biindole] | S. aureus ATCC 29213 | > 64 mg/L |

###

Assay: Pharmacokinetic study
Type: in vivo, female CD-1 mice
Settings: female, CD-1, mouse, plasma; IV administration at 3 mg/kg

| molecularString | Cmax [ng/mL] |
| --- | --- |
| O=C(c1c(-c2cc3cc(Cl)ccc3[nH]2)[nH]c2cc(Br)ccc12)C(F)(F)F | 19000 |

###

Test system: S. aureus ATCC 29213
Experiment: In vitro susceptibility, broth microdilution MIC
Format: cell-based, Staphylococcus aureus
Details: Staphylococcus aureus, ATCC29213, Tables 1-6 and text; minimum concentration to give >98% inhibition of growth; read-out: MIC
Reported MIC is given for each of the following compounds.

| compound | MIC |
| --- | --- |
| COCn1c(-c2cc3ccc(Br)cc3[nH]2)cc2cc(Br)ccc21 [Compound 12c] | > 64 µg/mL |
| Brc1ccc2[nH]c(C#Cc3cc4cc(Br)ccc4[nH]3)cc2c1 | > 64 µg/mL |
| Brc1ccc2cc(/C=C/c3cc4ccccc4[nH]3)[nH]c2c1 [Compound 27a] | > 64 µg/mL |
| CC(=O)c1c(-c2cc3ccccc3[nH]2)[nH]c2cc(Br)ccc12 | 4 µg/mL |
| O=C(Nc1ccc(Br)cc1)c1cc2ccc(Br)cc2s1 | > 64 µg/mL |
| O=C(Nc1nc2ccc(Br)cc2s1)c1cc(Br)ccc1O | > 64 µg/mL |
| COc1cc(-c2cc3ccccc3[nH]2)ccc1-c1cc2ccc(Br)cc2[nH]1 [Compound 33e] | > 64 µg/mL |
| O=C(Nc1nc2ccc(Br)cc2s1)c1cc(Br)cc(Br)c1O | 1 µg/mL |
| O=C1c2ccc(Br)cc2C(=O)N1c1nc2ccc(Br)cc2s1 | > 64 µg/mL |

###

Biological target: MRSA PK (Staphylococcus aureus)
Construct: His tag (pET-28a(+) vector) (N); made in house; host or cells: E. coli BL-21 (DE3)
Sequence (Q6GG09 whole entry): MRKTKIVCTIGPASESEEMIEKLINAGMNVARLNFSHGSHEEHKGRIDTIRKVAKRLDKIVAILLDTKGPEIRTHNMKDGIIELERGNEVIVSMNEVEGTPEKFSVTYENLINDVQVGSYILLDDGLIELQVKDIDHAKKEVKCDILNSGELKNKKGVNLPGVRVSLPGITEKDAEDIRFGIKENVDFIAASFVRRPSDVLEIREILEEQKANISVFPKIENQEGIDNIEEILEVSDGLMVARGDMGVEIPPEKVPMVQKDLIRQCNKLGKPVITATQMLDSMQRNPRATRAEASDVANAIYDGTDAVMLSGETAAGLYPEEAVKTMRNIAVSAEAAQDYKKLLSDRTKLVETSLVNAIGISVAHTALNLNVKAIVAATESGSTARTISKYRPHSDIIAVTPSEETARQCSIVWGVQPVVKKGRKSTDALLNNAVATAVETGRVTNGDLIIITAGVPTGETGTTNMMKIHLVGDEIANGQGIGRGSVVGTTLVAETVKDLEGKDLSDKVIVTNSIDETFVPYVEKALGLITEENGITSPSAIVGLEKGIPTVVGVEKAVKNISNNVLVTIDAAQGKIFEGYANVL
Experiment: MRSA PK activity, continuous LDH-coupled assay
Type: biochemical, S. aureus (MRSA strain Sanger 252)
pIC50: −log10 of the molar value.

| molecularString | pIC50 |
| --- | --- |
| Brc1ccc2cc(/C=C/c3ccc(-n4ccnc4)cc3)[nH]c2c1 | < 6.00 |
| COC(=O)c1c(C(=O)Nc2ccc(Cl)nc2)[nH]c2cc(Br)ccc12 | > 7.30 |
| Brc1ccc2cc(CCc3cn4ccccc4n3)[nH]c2c1 | < 6.00 |
| Cc1csc(/C=C/c2cc3ccc(Br)cc3[nH]2)c1 | < 6.00 |
| O=C(O)c1c(/C=C/c2ccc(Br)cn2)[nH]c2cc(Br)ccc12 | 6.00 to 7.00 |
| COC(=O)c1cc(Br)cc2[nH]c(/C=C/c3ccc(Cl)cc3)cc12 | < 6.00 |
| COc1ccc(/C=C/c2[nH]c3cc(Br)ccc3c2C(=O)C(F)(F)F)nc1 | < 6.00 |
| Cn1c(-c2cc3ccccc3s2)nc2cc(Br)ccc21 | < 6.00 |
| Clc1ccc(CCc2nc3ccc(Br)cc3[nH]2)cc1 | < 6.00 |
| CC(=O)c1c(CCc2cn3c(n2)CCCC3)[nH]c2cc(Br)ccc12 | < 4.00 |
| Cc1cnc(/C=C/c2cc3ccc(Br)cc3[nH]2)cn1 | < 6.00 |
| COc1ccc(NC(=O)c2[nH]c3cc(Br)ccc3c2C(=O)O)cc1 | > 7.30 |
| Clc1ccc2[nH]c(-c3cc4ccc(Br)cc4[nH]3)nc2c1 | > 7.30 |
| COc1ccc2[nH]c(-c3[nH]c4cc(Br)ccc4c3C(=O)C(F)(F)F)cc2c1 | > 7.30 |
| FC(F)(F)C1(c2ccc(-c3[nH]c4cc(Br)ccc4c3Cl)cc2)N=N1 | 6.96 |
| O=C(O)c1c(-c2cc3cc(Cl)ccc3[nH]2)[nH]c2cc(Br)ccc12 | > 7.30 |
| [N-]=[N+]=Nc1ccc2cc(-c3cc4ccc(Br)cc4[nH]3)[nH]c2c1 | 7.65 |
| CC(=O)c1c(/C=C/c2ccc(Cl)cc2)[nH]c2cc(Br)ccc12 | 6.00 to 7.00 |

###

Tested on: S. aureus ATCC 29213
Test: In vitro susceptibility, broth microdilution MIC
Type: cell-based, Staphylococcus aureus
Conditions: Staphylococcus aureus, ATCC29213, Tables 1-6 and text; minimum concentration to give >98% inhibition of growth; read-out: MIC
Method: The antimicrobial activities of PK inhibitor candidates were determined using the 96-well microtiter standard 2-fold serial broth microdilution method as described by CLSI (formerly NCCLS) with the various gram-positive and gram-negative bacteria species mentioned above. […] Culture plates were incubated for 18-24 h at 37° C., and optical density at 600 nm (OD600) was measured using a Benchmark Plus™ microplate spectrophotometer (Bio-Rad™). […]
Reported MIC is given for each of the following compounds.
observable: MIC

| compound | targetEntity | observable | observed |
| --- | --- | --- | --- |
| Brc1ccc2cc(/C=C/c3ccccc3)[nH]c2c1 [Compound 36a, (E)-6-bromo-2-styryl-1H-indole] | S. aureus ATCC 29213 | MIC | > 64 mg/L |
| Brc1ccc2cc(-c3ccc(-c4cc5ccc(Br)cc5[nH]4)nn3)[nH]c2c1 | S. aureus ATCC 29213 | MIC | > 32 mg/L |
| CN1CCN(CCn2c(-c3cc4ccc(Br)cc4[nH]3)cc3cc(Br)ccc32)CC1 [Compound 20a] | S. aureus ATCC 29213 | MIC | 4 mg/L |
| Brc1ccc2[nH]c(-c3ccc(-c4cc5cc(Br)ccc5[nH]4)s3)cc2c1 | S. aureus ATCC 29213 | MIC | > 64 mg/L |
| Brc1ccc2cc(C#Cc3cc4ccccc4[nH]3)[nH]c2c1 [Compound 25a] | S. aureus ATCC 29213 | MIC | > 64 mg/L |
| O=C(Nc1ccc(Br)cc1)c1cc2ccc(Br)cc2[nH]1 | S. aureus ATCC 29213 | MIC | > 64 mg/L |
| O=C(Nc1nc2ccccc2s1)c1cc(Br)ccc1O | S. aureus ATCC 29213 | MIC | > 64 mg/L |
| Clc1ccc2[nH]c(-c3cc4ccc(Br)cc4[nH]3)cc2c1 [Compound 10d, 6′-Bromo-5-chloro-1H,1′H-2,2′-biindole] | S. aureus ATCC 29213 | MIC | 0.3 mg/L |

###

Reported inhibition at 10 µM is given for each of the following compounds.
Target: Human M1 PK (Homo sapiens)
Construct: His tag; made in house; host or cells: E. coli BL-21 (DE3); construct a gift of Dr. L. Cantley
Sequence (P14618 1-531 isoform P14618-2): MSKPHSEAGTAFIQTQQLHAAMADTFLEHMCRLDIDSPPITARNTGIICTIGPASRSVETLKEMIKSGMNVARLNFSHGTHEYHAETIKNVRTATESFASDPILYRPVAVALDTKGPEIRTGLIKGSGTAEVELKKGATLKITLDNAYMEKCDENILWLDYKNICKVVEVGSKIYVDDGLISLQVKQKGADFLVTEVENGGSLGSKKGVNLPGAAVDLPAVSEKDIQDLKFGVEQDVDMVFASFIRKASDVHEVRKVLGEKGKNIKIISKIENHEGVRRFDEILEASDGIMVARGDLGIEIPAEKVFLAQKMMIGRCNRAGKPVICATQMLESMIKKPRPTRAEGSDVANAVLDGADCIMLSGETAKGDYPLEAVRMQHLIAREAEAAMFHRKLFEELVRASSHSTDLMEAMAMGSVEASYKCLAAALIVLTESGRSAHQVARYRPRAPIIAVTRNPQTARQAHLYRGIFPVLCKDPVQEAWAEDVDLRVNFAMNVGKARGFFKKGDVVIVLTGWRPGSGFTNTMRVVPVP
Assay: Human PK selectivity, LDH-coupled enzyme assay
Format: biochemical
Conditions: at 10 μM; read-out: % Inhibition Human M1
observable: inhibition at 10 µM (%)

| compound | observed |
| --- | --- |
| Brc1ccc2[nH]c(-c3cc4cc(Br)ccc4[nH]3)cc2c1 [Compound 10i, 5,5′-Bibromo-1H,1′H-2,2′-biindole] | 12.3 |
| Brc1ccc2cc(-c3cc4cc(Br)c(Br)cc4[nH]3)[nH]c2c1 [Compound 10k, 5,6,6′-Tribromo-1H,1′H-2,2′-biindole] | 16.1 |
| Brc1ccc2[nH]c(-c3cc4ccc(Br)cc4[nH]3)cc2c1 [Compound 10c, 5,6-Bibromo-1H,1′H-2,2′-biiindole] | 6.9 |
| Brc1ccc2cc(-c3cc4ccccc4o3)[nH]c2c1 [Compound 22b, 2-(Benzofuran-2-yl)-6-bromo-1H-indole] | 5.3 |
| COc1cc(-c2cc3ccccc3[nH]2)ccc1-c1cc2ccc(Br)cc2[nH]1 [Compound 33e] | 7.3 |
| OCCn1c(-c2cc3ccc(Br)cc3[nH]2)cc2cc(Br)ccc21 | 14.6 |
| Brc1ccc2[nH]c(C#Cc3cc4ccc(Br)cc4[nH]3)cc2c1 [Compound 25c] | 19.5 |

Source: patent US20170216252A1
